system_tested: HLA-DR4 (DRA-DRB1*0405 complex) (human (endogenous in EBWa))
assay_comment: radioligand binding
measurement_label: Kd

Q: Which Kd is listed for GSTVFDNLPNPEIDGDYYGW [0405BP3 (…), unlabeled] ?
Result: 70 nM
